All figures here come from paper PMC3790647.

- assay_method_text: Plasma pharmacokinetics of resminostat in patients
- Type: in vivo, human
- applied_conditions: human, plasma, po, 600 mg, Cmax, day 1, single oral administration, 600 mg, N=3; geometric mean (68% range); free-base
observation_type: Cmax (ng/mL)
The figure you give is taken to be in ng/mL; do not add the unit.

I have this compound here, CN(C)Cc1ccc(S(=O)(=O)n2ccc(/C=C/C(=O)NO)c2)cc1 , and I need its recorded Cmax.
4100

* * *

- assay_method_text: Plasma pharmacokinetics of resminostat in patients
- Assay type: in vivo, human
- applied_conditions: human, plasma, po, 400 mg
observation_type: AUC
Include the unit after the number when you answer.

I have this compound here, CN(C)Cc1ccc(S(=O)(=O)n2ccc(/C=C/C(=O)NO)c2)cc1 , and I need its recorded AUC.
8110 ng·h/mL

* * *

- assay_method_text: Plasma pharmacokinetics of resminostat in patients
- Assay type: in vivo, human
- applied_conditions: human, plasma, po, 800 mg
observation_type: AUC(0-inf) (ng·h/mL)
The figure you give is taken to be in ng·h/mL; do not add the unit.

I have this compound here, CN(C)Cc1ccc(S(=O)(=O)n2ccc(/C=C/C(=O)NO)c2)cc1 , and I need its recorded AUC(0-inf).
21200

* * *

- assay_method_text: Plasma pharmacokinetics of resminostat in patients
- Type: in vivo, human
- applied_conditions: human, plasma, po, 600 mg, Cmax, day 5, multiple oral administration, 600 mg, N=3; geometric mean (68% range); free-base
observation_type: Cmax (ng/mL)
The figure you give is taken to be in ng/mL; do not add the unit.

I have this compound here, CN(C)Cc1ccc(S(=O)(=O)n2ccc(/C=C/C(=O)NO)c2)cc1 [resminostat] , and I need its recorded Cmax.
3000

* * *

- assay_method_text: Plasma pharmacokinetics of resminostat in patients
- Assay type: in vivo, human
- applied_conditions: human, plasma, po, 600 mg
observation_type: AUC (ng·h/mL)
The figure you give is taken to be in ng·h/mL; do not add the unit.

I have this molecule here, CN(C)Cc1ccc(S(=O)(=O)n2ccc(/C=C/C(=O)NO)c2)cc1 [resminostat] , and I need its recorded AUC.
19300

* * *

- assay_method_text: Plasma pharmacokinetics of resminostat in patients
- Assay type: in vivo, human
- applied_conditions: human, plasma, po, 400 mg, Cmax, day 1, single oral administration, 400 mg, N=3; geometric mean (68% range); free-base
observation_type: Cmax (ng/mL)
The figure you give is taken to be in ng/mL; do not add the unit.

I have this molecule here, CN(C)Cc1ccc(S(=O)(=O)n2ccc(/C=C/C(=O)NO)c2)cc1 , and I need its recorded Cmax.
2160

* * *

- assay_method_text: Plasma pharmacokinetics of resminostat in patients
- Type: in vivo, human
- applied_conditions: human, plasma, po, 100 mg
observation_type: AUC (µg·h/mL)
The figure you give is taken to be in µg·h/mL; do not add the unit.

I have this compound here, CN(C)Cc1ccc(S(=O)(=O)n2ccc(/C=C/C(=O)NO)c2)cc1 [resminostat] , and I need its recorded AUC.
1.33

* * *

- assay_method_text: Plasma pharmacokinetics of resminostat in patients
- Assay type: in vivo, human
- applied_conditions: human, plasma, po, 200 mg
observation_type: Tmax (h)
The figure you give is taken to be in h; do not add the unit.

I have this molecule here, CN(C)Cc1ccc(S(=O)(=O)n2ccc(/C=C/C(=O)NO)c2)cc1 , and I need its recorded Tmax.
2
